B1: Osa-1-4 twister ribozyme (parent)
chain: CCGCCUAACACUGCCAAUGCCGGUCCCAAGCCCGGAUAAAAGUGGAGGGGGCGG

# Variants of: B1
# test-description: self-cleavage, relative activity (ratio to wild type); higher = more cleavage; co-transcriptional
measure: self-cleavage
Just the number, please.

Below are worked cases with known answers.
1) G45C G53U ... 0.06
2) C25U G53C ... 0.06
3) A16U C32A ... 0.08
4) A28U G44U ... 0.49

Query: Consider the variant shown here: C9A U24A What is its recorded self-cleavage?
Response: 0.04

Query: Given the entry C26G C32G , report its measured self-cleavage.
Response: 0.09

Query: Need self-cleavage of A7U C14A , thanks.
Response: 0.03

Query: Any idea what its self-cleavage is? The variant is A28U G53C
Response: 0.08

Query: What does the data say about its self-cleavage? Entry: G42C U18C
Response: 0.21

Query: Given the entry A38G G42A , report its measured self-cleavage.
Response: 0.7

Query: What measured self-cleavage goes with A29U A36U ?
Response: 0.17
